system: Staphylococcus aureus; assay: Antibacterial activity against Staphylococcus aureus after 24 hrs by serial dilution method; format: functional
Experimental Readout: MBC

Example cases with answers are listed next.
CCCCCCCCCCCC(=O)N/N=C/c1ccccc1Cl	>0.148 uM/ml
O=C(N/N=C/c1ccccc1)c1cc([N+](=O)[O-])cc([N+](=O)[O-])c1	>0.159 uM/ml
Cc1cccc(C(=O)N/N=C/c2ccccc2Cl)c1	>0.183 uM/ml
Cc1cccc(C(=O)N/N=C/c2ccccc2)c1	>0.21 uM/ml
CCCCCCCCCCCC(=O)N/N=C/c1ccccc1	>0.166 uM/ml

Task: Dear colleague, I am looking for the recorded MBC of the following compound: `C/C=C/C=C/C(=O)N/N=C/c1ccccc1`
Output: >0.233 uM/ml

Task: Same again, this time with `O=C(N/N=C/c1ccccc1Cl)c1cc([N+](=O)[O-])cc([N+](=O)[O-])c1`
Output: >0.13 uM/ml

Task: Try this compound next: `CCCCCCCCCCCCCCCCCC(=O)N/N=C/c1ccccc1`
Output: 0.129 uM/ml

Task: # iterate: `COc1cc(OC)cc(C(=O)N/N=C/c2ccccc2)c1`
Output: 0.088 uM/ml

Task: Here is the next compound: `O=C(/C=C/c1ccccc1)N/N=C/c1ccccc1Cl`
Output: 0.176 uM/ml

Task: Field entry: `Cc1ccc(C(=O)N/N=C/c2ccccc2)cc1`
Output: >0.21 uM/ml

Task: Could you do the same for `CCCCCCCCCCCCCCCCCC(=O)N/N=C/c1ccccc1Cl` , please?
Output: >0.119 uM/ml

Task: Also check `CCCCCCCCCCCCCCCC(=O)N/N=C/c1ccccc1Cl`
Output: >0.127 uM/ml

====

system: Escherichia coli; assay: Antibacterial activity against Escherichia coli after 24 hrs by serial dilution method; assay type: functional
Below: a set of entries, each annotated with reported MBC.

Reference set (4 entries):
COc1cc(OC)cc(C(=O)N/N=C/c2ccccc2Cl)c1	>0.157 uM/ml
C/C=C/C=C/C(=O)N/N=C/c1ccccc1	0.058 uM/ml
O=C(/C=C/c1ccccc1)N/N=C/c1ccccc1	0.05 uM/ml
CCCCCCCCCCCCCCCC(=O)N/N=C/c1ccccc1	>0.139 uM/ml

Task: # get_value(readout= MBC, system= Escherichia coli) for `CCCCCCCCCCCCCC(=O)N/N=C/c1ccccc1Cl`
Output: 0.034 uM/ml

Task: Would you kindly repeat that for `O=C(/C=C/c1ccccc1)N/N=C/c1ccccc1Cl` ?
Output: >0.176 uM/ml

Task: Thanks! And `CCCCCCCCCCCCCC(=O)N/N=C/c1ccccc1` ?
Output: >0.152 uM/ml

Task: For `COc1cc(OC)cc(C(=O)N/N=C/c2ccccc2)c1` then?
Output: 0.177 uM/ml

====

Below is a list of entries, each paired with its recorded MBC value.
system: Escherichia coli; experiment: Antibacterial activity against Escherichia coli after 24 hrs by serial dilution method; format: functional
Report the value in uM/ml with no unit label.

Known MBC results, listed for orientation:
CCCCCCCCCCCCCCCCCC(=O)N/N=C/c1ccccc1	0.064
CCCCCCCCCCCCCCCC(=O)N/N=C/c1ccccc1Cl	0.031
C/C=C/C=C/C(=O)N/N=C/c1ccccc1Cl	0.1
Cc1ccc(C(=O)N/N=C/c2ccccc2)cc1	0.052
CCCCCCCCCCCC(=O)N/N=C/c1ccccc1	0.041
Cc1cccc(C(=O)N/N=C/c2ccccc2Cl)c1	0.045

Task: Need MBC of `CCCCCCCCCCCC(=O)N/N=C/c1ccccc1Cl` , thanks.
Output: 0.009

Task: Here is the next compound: `Cc1ccc(C(=O)N/N=C/c2ccccc2Cl)cc1`
Output: 0.045
